# ASSAY: differential killing of epithelial or mesenchymal cells, primary screen, imaging, PC-3E GFP, TEM4-18 mCherry, co-culture (AID 1345086);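 further: cells exposed to compound for 72 h before imaging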;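 on red/green cell ratio (normalised): normalised mesenchymal count divided by normalised epithelial count so high means epithelial killing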
# PROTOCOL CONDITIONS: imaging cell counts, at 1 µM, actives lie on both sides, counts scaled to control wells, 1 = unselective
Below, each entry is listed alongside its reported red/green cell ratio (normalised).

{"COMPOUND": "CC(=O)O[C@]1(C(C)=O)CCC2C3C=C(Cl)C4=CC(=O)[C@@H]5C[C@@H]5[C@]4(C)C3CC[C@@]21C (some centres undefined)", "red/green cell ratio (normalised)": 0.81}
{"COMPOUND": "CC(=O)OCC(=O)[C@@]1(O)CCC2C3CCC4=CC(=O)C=C[C@]4(C)[C@@]3(F)[C@@H](O)C[C@@]21C (some centres undefined)", "red/green cell ratio (normalised)": 0.75}
{"COMPOUND": "CC(C)N=c1cc2n(-c3ccc(Cl)cc3)c3ccccc3nc-2cc1Nc1ccc(Cl)cc1", "red/green cell ratio (normalised)": 0.91}
{"COMPOUND": "C[C@@H]1CC[C@@]2(OC1)O[C@H]1CC3C4CC[C@H]5C[C@@H](O)CC[C@]5(C)C4CC[C@]3(C)[C@H]1[C@@H]2C (some centres undefined)", "red/green cell ratio (normalised)": 0.88}

----------
# ASSAY: liver-stage malaria parasite growth inhibition, primary screen, cell-based, HepG2, luciferase luminescence, HepG2 viability (AID 624349);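 further: 100% = mean of DMSO negative control wells on the same plate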
# PROTOCOL CONDITIONS: P. berghei liver stage in HepG2, luciferase luminescence, concentration not given here; stronger effect = lower value
Active and inactive are the calls of the source. Rule as the data show it: active = parasite load remaining mostly below about 12% (no sharp cut-off); inactive = mostly above about 10%.

{"COMPOUND": "O=c1c(O)c(-c2ccc(O)cc2)oc2cc(O)cc(O)c12", "parasite load remaining": "80.6% (inactive)"}
{"COMPOUND": "CC(CCCCC(=O)Nc1ccc(C(F)(F)F)cc1)NCCc1cnc[nH]1 (stereo not given)", "parasite load remaining": "54.5% (inactive)"}
{"COMPOUND": "NC(=O)c1ccc2[nH]ccc2c1", "parasite load remaining": "32.8% (inactive)"}
{"COMPOUND": "CO/N=C(/C(=O)NC1C(=O)N2C(C(=O)OC(C)OC(C)=O)=C(COC(N)=O)CSC12)c1ccco1 (stereo not given)", "parasite load remaining": "60.6% (inactive)"}
{"COMPOUND": "CCOC(=O)OC(C)OC(=O)C1N2C(=O)C(NC(=O)[C@H](N)c3ccccc3)C2SC1(C)C (stereo not given in full)", "parasite load remaining": "43.5% (inactive)"}

----------
# ASSAY: polyglutamine-triggered caspase-3 activation inhibitors, cell-based (AID 1583)
# PROTOCOL CONDITIONS: polyglutamine-induced caspase-3 activation, cell assay; stronger effect = higher value; concentration not given here
Catalogue of inhibition values

{"MOLECULE": "CN1C2CC[C@@H]1CC(OC(=O)[C@H](CO)c1ccccc1)C2 (stereo partly drawn)", "inhibition (%)": 10}
{"MOLECULE": "C[C@@H]1CC2C3C[C@H](F)C4=CC(=O)C=C[C@]4(C)[C@@]3(F)[C@@H](O)C[C@]2(C)[C@@]1(O)C(=O)CO (stereo partly drawn)", "inhibition (%)": 14.1}
{"MOLECULE": "CC1(C)C2CC[C@]3(C)C(C(=O)C=C4[C@H]5C[C@@](C)(C(=O)O)CC[C@]5(C)CC[C@]43C)[C@@]2(C)CC[C@@H]1O (stereo partly drawn)", "inhibition (%)": -22.8}
{"MOLECULE": "CC(=O)O[C@]1(C(C)=O)CCC2C3C[C@H](C)C4=CC(=O)CC[C@]4(C)C3CC[C@@]21C (stereo partly drawn)", "inhibition (%)": 28.3}
{"MOLECULE": "OCC(S)CS (stereo not drawn)", "inhibition (%)": 11.1}
{"MOLECULE": "CCC(=O)OCC(=O)C1(OC(=O)CC)C(C)CC2C3CCC4=CC(=O)C=CC4(C)C3(Cl)C(O)CC21C (stereo not drawn)", "inhibition (%)": -26}
{"MOLECULE": "CO[C@H]1/C=C/O[C@@]2(C)Oc3c(C)c(O)c4c(O)c(c(C=NN5CCN(C)CC5)c(O)c4c3C2=O)NC(=O)/C(C)=C\\C=C\\C(C)[C@H](O)[C@@H](C)[C@@H](O)[C@@H](C)[C@@H](OC(C)=O)[C@@H]1C (stereo partly drawn)", "inhibition (%)": -10.8}
{"MOLECULE": "CC(COc1ccccc1)NC(C)[C@H](O)c1ccc(O)cc1 (stereo partly drawn)", "inhibition (%)": -10.5}
{"MOLECULE": "CC12CCC(=O)C=C1CCC1C2[C@@H](O)CC2(C)C1CC[C@]2(O)C(=O)COP(=O)(O)O (stereo partly drawn)", "inhibition (%)": -6.16}
{"MOLECULE": "CC(=O)[C@H]1CCC2C3C[C@H](C)C4=CC(=O)CC[C@]4(C)C3[C@@H](O)C[C@@]21C (stereo partly drawn)", "inhibition (%)": -9.54}
{"MOLECULE": "O=C(O)C1CCCNC1 (stereo not drawn)", "inhibition (%)": 28}
{"MOLECULE": "CO/N=C(/C(=O)NC1C(=O)N2C(C(=O)O)=C(COC(N)=O)CSC12)c1ccco1 (stereo not drawn)", "inhibition (%)": 8.13}
{"MOLECULE": "CC(=O)OCC(=O)[C@@]1(O)CCC2C3CCC4=CC(=O)CC[C@]4(C)C3C(=O)C[C@@]21C (stereo partly drawn)", "inhibition (%)": -3.61}
{"MOLECULE": "CCCCC[C@H](CC(=O)NO)C(=O)N[C@H](C(=O)N1CCC[C@H]1CO)C(C)C", "inhibition (%)": -22.9}
{"MOLECULE": "CC1(C)O[C@@H]2CC3C4C[C@H](F)C5=CC(=O)C=CC5(C)C4C(O)CC3(C)[C@]2(C(=O)CO)O1 (stereo partly drawn)", "inhibition (%)": 7.08}
{"MOLECULE": "CC(=O)O[C@]1(C(C)=O)CCC2C3C=C(Cl)C4=CC(=O)[C@@H]5C[C@@H]5[C@]4(C)C3CC[C@@]21C (stereo partly drawn)", "inhibition (%)": 22.9}
{"MOLECULE": "C#C[C@]1(O)CCC2C3CCC4=CC(=O)CC[C@@H]4C3CC[C@@]21C (stereo partly drawn)", "inhibition (%)": -3.25}
{"MOLECULE": "O=C(O)CCCCC1SCC2NC(=O)NC21 (stereo not drawn)", "inhibition (%)": 27.9}

----------
# ASSAY: differential killing of epithelial or mesenchymal cells, primary screen, imaging, PC-3E GFP, TEM4-18 mCherry, co-culture (AID 1345086);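 further: cells exposed to compound for 72 h before imaging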
# PROTOCOL CONDITIONS: imaging cell counts, measured here: mesenchymal TEM4-18 mCherry cell survival, at 1 µM
// values below are reported normalised cell number

{"MOLECULE": "CO[C@H]1OC2COC(c3ccccc3)OC2[C@H](OCc2ccccc2)[C@@H]1OCc1ccccc1 (stereo not given in full)", "normalised cell number": 1.15}
{"MOLECULE": "CC(=O)Oc1cccc(C)c1", "normalised cell number": 0.89}
{"MOLECULE": "CN(Cc1cnc2nc(N)nc(N)c2n1)c1ccc(C(=O)NC(CCC(=O)O)C(=O)O)cc1 (stereo not given)", "normalised cell number": 1.02}
{"MOLECULE": "CC1C/C=C/C=C/C=C/C=C/C(O[C@@H]2O[C@H](C)[C@@H](O)[C@H](N)[C@@H]2O)CC2OC(O)(CC(O)CC3OC3/C=C/C(=O)O1)CC(O)C2C(=O)O (stereo not given in full)", "normalised cell number": 1.06}
{"MOLECULE": "COC(=O)C1[C@H]2C[C@H]3c4[nH]c5ccccc5c4CCN3C[C@@H]2CC[C@@H]1O (stereo not given in full)", "normalised cell number": 1.04}

----------
# System: Neuropilin-2 / VEGF-C interaction (human)
# ASSAY: inhibitors of NRP2–VEGF-C binding, biochemical, microplate binding format, z-score (AID 743281)
# PROTOCOL CONDITIONS: microplate NRP2/VEGF-C binding assay; stronger effect = lower value
Each record is given 1 (yes) if its reported z-score is strictly below -0.3. Records at or above -0.3 are given 0 (no).

{"COMPOUND": "C[C@@H](c1ncncc1F)[C@](O)(Cn1cncn1)c1ccc(F)cc1F", "SYSTEM NAME": "Neuropilin-2 / VEGF-C interaction (human)", "DISCRETE LABEL": "0 (no)"}
{"COMPOUND": "CC(COc1ccccc1Cc1ccccc1)N1CCCCC1 (stereo not drawn)", "SYSTEM NAME": "Neuropilin-2 / VEGF-C interaction (human)", "DISCRETE LABEL": "1 (yes)"}
{"COMPOUND": "COc1ccc(C[C@H](C)NC[C@@H](O)c2ccc(O)c(NC=O)c2)cc1", "SYSTEM NAME": "Neuropilin-2 / VEGF-C interaction (human)", "DISCRETE LABEL": "1 (yes)"}
{"COMPOUND": "Cc1sc(N)c(C(=O)c2cccc(C(F)(F)F)c2)c1C", "SYSTEM NAME": "Neuropilin-2 / VEGF-C interaction (human)", "DISCRETE LABEL": "0 (no)"}
{"COMPOUND": "CCN(CC)C(=O)[C@]1(c2ccccc2)C[C@@H]1CN", "SYSTEM NAME": "Neuropilin-2 / VEGF-C interaction (human)", "DISCRETE LABEL": "0 (no)"}
{"COMPOUND": "C=CCc1ccc(O)c(-c2ccc(O)c(CC=C)c2)c1", "SYSTEM NAME": "Neuropilin-2 / VEGF-C interaction (human)", "DISCRETE LABEL": "1 (yes)"}
{"COMPOUND": "CN(CCO)CC(O)Cn1cnc2c1c(=O)n(C)c(=O)n2C (stereo not drawn) (tested in a mixture with another compound)", "SYSTEM NAME": "Neuropilin-2 / VEGF-C interaction (human)", "DISCRETE LABEL": "0 (no)"}
{"COMPOUND": "CC(C)NCC(O)c1ccc(NS(C)(=O)=O)cc1 (stereo not drawn)", "SYSTEM NAME": "Neuropilin-2 / VEGF-C interaction (human)", "DISCRETE LABEL": "0 (no)"}
{"COMPOUND": "CC(=O)SCC(Cc1ccccc1)C(=O)NCC(=O)OCc1ccccc1 (stereo not drawn)", "SYSTEM NAME": "Neuropilin-2 / VEGF-C interaction (human)", "DISCRETE LABEL": "0 (no)"}
{"COMPOUND": "COc1cc(/C=C/c2ccc(O)cc2)cc(OC)c1", "SYSTEM NAME": "Neuropilin-2 / VEGF-C interaction (human)", "DISCRETE LABEL": "1 (yes)"}
{"COMPOUND": "CCCCc1nc(Cl)c(CO)n1Cc1ccc(-c2ccccc2-c2nnn[nH]2)cc1", "SYSTEM NAME": "Neuropilin-2 / VEGF-C interaction (human)", "DISCRETE LABEL": "0 (no)"}
{"COMPOUND": "CCOC(=O)c1ccc(OC(=O)CCCCCN=C(N)N)cc1", "SYSTEM NAME": "Neuropilin-2 / VEGF-C interaction (human)", "DISCRETE LABEL": "1 (yes)"}
{"COMPOUND": "O=C1c2c(O)cc(O)cc2O[C@H](c2ccc(O)c(O)c2)[C@H]1O", "SYSTEM NAME": "Neuropilin-2 / VEGF-C interaction (human)", "DISCRETE LABEL": "1 (yes)"}
